- TARGET_UNDER_TEST: T1, cynomolgus monkey serum albumin (cynomolgus monkey, UniProt A2V9Z4 25-608)
- T1 construct: Bought protein, immobilized on a CM5 chip by amine coupling; also called Cyno SA
- PROTOCOL_SUMMARY: SPR (Biacore 8K), albumin immobilized on CM5 chip, 25 C, 1:1 kinetic fit
Could you please report measured koff for the items listed next?
Dear colleague, please send the value followed by its unit.

[[record]]
binder = "RLN Analog 9 (other, Single-chain fusion: RLN2 B chain (desB1) - L2 - RLN2 A chain - (G4Q)5 L1 - VHH (C-terminal)) SWMEEVIKLCGRELVRAQIAICGMSTWSGGGSGGSGGGQLYSALANKCCHVGCTKRSLARFCGGGGQGGGGQGGGGQGGGGQGGGGQEVQLLESGGGLVQPGGSLRLSCAASGRYIDETAVAWFRQAPGKGREFVAGIGGGVDITYYADSVKGRFTISRDNSKNTLYLQMNSLRPEDTAVYYCAARPGRPLITSKVADLYPYWGQGTLVTVSSPP"
result = "0.00094 s⁻¹"

[[record]]
binder = "RLN Analog 2 (other, Single-chain fusion: VHH - (PGPA)8 L1 - RLN2 A chain - L2 - RLN2 B chain (desB1)) EVQLLESGGGLVQPGGSLRLSCAASGRYIDETAVAWFRQAPGKEREFVAGIGGGVDITYYADSVKGRFTISRDNSKNTLYLQMNSLRPEDTAVYYCAARPGRPLITSKVADLYPYWGQGTLVTVSSPGPAPGPAPGPAPGPAPGPAPGPAPGPAPGPAQLYSALANKCCHVGCTKRSLARFCGGGSGGSGGGSWMEEVIKLCGRELVRAQIAICGMSTWS"
result = "0.00052 s⁻¹"

[[record]]
binder = "RLN Analog 6 (other, Single-chain fusion: RLN2 B chain (desB1) - L2 - RLN2 A chain - PGPQ-repeat L1 - VHH (C-terminal)) SWMEEVIKLCGRELVRAQIAICGMSTWSGGGSGGSGGGQLYSALANKCCHVGCTKRSLARFCPGPQPGPQPGPQPGPQPGPQPGPQPGPQPGPQEVQLLESGGGLVQPGGSLRLSCAASGRYIDETAVAWFRQAPGKEREFVAGIGGGVDITYYADSVKGRFTISRDNSKNTLYLQMNSLRPEDTAVYYCAARPGRPLITSKVADLYPYWGQGTLVTVSSPP"
result = "0.001 s⁻¹"

[[record]]
binder = "RLN Analog 14 (other, Single-chain fusion: VHH - (PGPQ)8 L1 - RLN2 A chain (desA1-4) - L2 - RLN2 B chain (desB1)) EVQLLESGGGLVQPGGSLRLSCAASGRYIDETAVAWFRQAPGKGREFVAGIGGGVDITYYADSVKGRFTISRDNSKNTLYLQMNSLRPEDTAVYYCAARPGRPLITSKVADLYPYWGQGTLVTVSSPGPQPGPQPGPQPGPQPGPQPGPQPGPQPGPQALANKCCHVGCTKRSLARFCGGGSGGSGGGSWMEEVIKLCGRELVRAQIAICGMSTWS"
result = "0.00068 s⁻¹"

[[record]]
binder = "RLN Analog 8 (other, Single-chain fusion: VHH - (PGPQ)8 L1 - RLN2 B chain (desB1) - L2 - RLN2 A chain) EVQLLESGGGLVQPGGSLRLSCAASGRYIDETAVAWFRQAPGKGREFVAGIGGGVDITYYADSVKGRFTISRDNSKNTLYLQMNSLRPEDTAVYYCAARPGRPLITSKVADLYPYWGQGTLVTVSSPGPQPGPQPGPQPGPQPGPQPGPQPGPQPGPQSWMEEVIKLCGRELVRAQIAICGMSTWSGGGSGGSGGGQLYSALANKCCHVGCTKRSLARFC"
result = "0.00059 s⁻¹"


Task item: Looking for the measured koff of RLN Analog 1 (other) EVQLLESGGGLVQPGGSLRLSCAASGRYIDETAVAWFRQAPGKEREFVAGIGGGVDITYYADSVKGRFTISRDNSKNTLYLQMNSLRPEDTAVYYCAARPGRPLITSKVADLYPYWGQGTLVTVSSGGGGQGGGGQGGGGQGGGGQGGGGQQLYSALANKCCHVGCTKRSLARFCGGGSGGSGGGSWMEEVIKLCGRELVRAQIAICGMSTWS , can you help?
Reply: 0.00053 s⁻¹
